Biological target: human serotonin transporter (SERT) (Homo sapiens, UniProt P31645)
Sequence (P31645 whole entry): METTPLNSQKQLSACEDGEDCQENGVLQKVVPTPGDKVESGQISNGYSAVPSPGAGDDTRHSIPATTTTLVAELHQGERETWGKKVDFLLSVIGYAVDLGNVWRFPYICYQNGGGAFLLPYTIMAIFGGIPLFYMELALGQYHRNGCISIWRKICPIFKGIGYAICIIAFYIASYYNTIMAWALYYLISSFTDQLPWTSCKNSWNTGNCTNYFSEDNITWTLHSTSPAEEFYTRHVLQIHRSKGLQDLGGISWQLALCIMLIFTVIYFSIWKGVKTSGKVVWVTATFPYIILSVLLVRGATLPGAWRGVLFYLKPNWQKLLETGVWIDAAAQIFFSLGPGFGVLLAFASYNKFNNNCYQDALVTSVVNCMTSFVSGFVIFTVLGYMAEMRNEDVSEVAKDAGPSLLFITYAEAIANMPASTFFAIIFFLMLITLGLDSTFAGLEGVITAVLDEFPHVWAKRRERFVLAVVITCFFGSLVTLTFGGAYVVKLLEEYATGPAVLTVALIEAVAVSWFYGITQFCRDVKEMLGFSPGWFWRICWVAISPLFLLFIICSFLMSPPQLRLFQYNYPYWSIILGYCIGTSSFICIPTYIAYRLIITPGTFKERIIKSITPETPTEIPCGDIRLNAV
Assay: NIH-PDSP transporter binding assay, SERT (3H-Citalopram)
Details: Table 8, Homologues Type II (Aminopropane Derivatives)
Lab note - cut at 3 µM for Ki: 1 if strictly below, -1 if not.

Lab note: confirm whether the reported Ki for this molecule is below 3 µM, equality not counting. molecule: Fc1ccc(OC(CCN2CCN(c3ncccn3)CC2)c2ccccc2)cc1 (centres unmarked) [Compound 24b] -1

Lab note: confirm whether the reported Ki for this molecule is below 3 µM, equality not counting. molecule: CN1CCN(CCC(Oc2ccc(C(F)(F)F)cc2)c2ccccc2)CC1 (centres unmarked) [Compound 27b] -1

Lab note: confirm whether the reported Ki for this molecule is below 3 µM, equality not counting. molecule: CN1CCN(CCC(Oc2ccc(F)cc2)c2ccccc2)CC1 (centres unmarked) [Compound 26b] 1

Lab note: confirm whether the reported Ki for this molecule is below 3 µM, equality not counting. molecule: O=C(c1ccc(F)cc1)C1CCN(CCC(Oc2ccc(F)cc2)c2ccccc2)CC1 (centres unmarked) [Compound 28b] -1

Lab note: confirm whether the reported Ki for this molecule is below 3 µM, equality not counting. molecule: COc1ccccc1N1CCN(CCC(Oc2ccc(F)cc2)c2ccccc2)CC1 (centres unmarked) [Compound 22b] 1
